Field: % healing at day 4 post treatment. Provide a value for each of the sequences that follow.
Tested on: trans-dermal wounds
assay overview: wound healing of trans-dermal wounds in mice, topical application
Type: in vivo
applied conditions: day 4; topical 0.5 mg/ml (5 mg/kg), 1 application/day; 5 mm punch wounds
Answers are plain numbers, in %.

{"entry sequence": "QSQKVPRQVQS [Peptide 11, fragment of the protein 156A, chemically synthesized]", "% healing at day 4 post treatment, %": 64.4}
{"entry sequence": "VSKDVCRL [Peptide 10, fragment of the protein 156A, chemically synthesized]", "% healing at day 4 post treatment, %": 78.9}

Items follow; give % healing at day 4 post treatment for each.
1. ELDLQASL [Peptide 7B, fragment of the protein 156A, chemically synthesized]
2. TQECPVRTSLDRELDLQASL [Peptide 7, fragment of the protein 156A, chemically synthesized]

[76.6, 82.9]
